- method.description: photoluminescence quantum yield (fraction); solvent given as SMILES
- measurement.context: in C1CCCCC1
readout: photoluminescence quantum yield
// response body must contain only the number

GET /value?item= `c1csc(-c2cnc(-c3cccs3)c3nonc23)c1` &field=photoluminescence quantum yield returns 0.54

GET /value?item= `CCCCN1c2ccccc2Sc2cc(/C=C/c3nc4nc5ccccc5nc4s3)ccc21` &field=photoluminescence quantum yield returns 0.27

GET /value?item= `CN(C)c1ccc2nc(-c3ccc(C(=O)OC[C@H](NC(=O)OC(C)(C)C)C(=O)OCc4ccccc4)cc3)sc2c1` &field=photoluminescence quantum yield returns 0.86

GET /value?item= `COOCc1noc(-c2ccccc2)c1Cl` &field=photoluminescence quantum yield returns 0.006
